- System: NOMO1
- methodSummary: cell viability relative to DMSO control; higher = less cytotoxic
- setupConditions: RPMI 5 mM glucose + 10% FBS; 48 h; 0.0211 µM
Measured cell viability, listed per entry for reference.
Response body: numeric value in %, unit text excluded.

compound	valueUnits	cell viability
CN1\N=C(N)/C2=C[N]([C@@H]3O[C@H](CO[P](O)(O)=O)[C@@H](O)[C@H]3O)C4=C2C1=NC=N4	%	99.9
C/C(O)=C(\C#N)C(=O)Nc1cc(Br)ccc1Br	%	99.2

Query: Dear colleague, please send me the reported cell viability for NC(=O)C1CCCc2c1[nH]c1ccc(Cl)cc21 (stereo not drawn) when you can.
Reply: 105

---

- Tested on: NOMO1
- methodSummary: cell viability relative to DMSO control; higher = less cytotoxic
- setupConditions: RPMI 5 mM glucose + 10% FBS; 48 h; 0.19 µM
Measured cell viability, listed per entry for reference.
Response body: numeric value in %, unit text excluded.

Solved entries:
compound	cell viability (%)
CN1c2ccccc2C(=O)N2CCc3c([nH]c4ccccc34)C21 (stereo unspecified)	111
CNCc1ccc(-c2[nH]c3cc(F)cc4c3c2CCNC4=O)cc1	127
NC/1=N/C(=O)N(/C=C1F)[C@H]2CS[C@H](CO)O2	157

Query: Dear colleague, please send me the reported cell viability for CC/1=C(/C(CC(=O)N1)C2=CC=C(C=C2)C(F)(F)F)C(=O)NC3=C(F)C=C4[NH]N=CC4=C3 (stereo unspecified) when you can.
Reply: 86

---

- System: SEM cells
- methodSummary: cell viability relative to DMSO control; higher = less cytotoxic
- setupConditions: RPMI 5 mM glucose + 10% dialyzed FBS; 48 h; 0.19 µM
Measured cell viability, listed per entry for reference.
Response body: numeric value in %, unit text excluded.

Solved entries:
compound	cell viability, %
CC1(N2CCC(n3c([C@@H]4CCCNC4)nc4ccccc43)CC2)CCCCCCC1	95.7
Nc1nc(N)c2nc(-c3cccc(O)c3)c(-c3cccc(O)c3)nc2n1	114
O=C(c1ccc(F)c(F)c1Nc1ccc(I)cc1F)N1CC(O)([C@@H]2CCCCN2)C1	96.6
C[C@]12CC[C@H]3[C@@H](C\C=C/4C[C@@H](O)CC[C@]34C)[C@@H]1CCC2=O	136
CC/1=C(/C(CC(=O)N1)C2=CC=C(C=C2)C(F)(F)F)C(=O)NC3=C(F)C=C4[NH]N=CC4=C3 (stereo unspecified)	97.1

We now examine a further compound.
Query: Dear colleague, please send me the reported cell viability for C[S+](=O)([O-])c1cccc(CNc2nc(Nc3ccc4c(c3)CCC(=O)N4)ncc2C(F)(F)F)c1 when you can.
Reply: 94.9

---

Measured cell viability, listed per entry for reference.
- Test system: P12-Ichikawa
- methodSummary: cell viability relative to DMSO control; higher = less cytotoxic
- setupConditions: RPMI 5 mM glucose + 10% dialyzed FBS; 48 h; 0.000781 µM
Response body: numeric value in %, unit text excluded.

Solved entries:
compound	cell viability / %
CN1\C(=C(\O)C2=C(C=CC=C2)[S+]1([O-])=O)C(=O)NC3=CC=CC=N3	96.9
C[S+](=O)([O-])c1cccc(CNc2nc(Nc3ccc4c(c3)CCC(=O)N4)ncc2C(F)(F)F)c1	110
CC[C@H](C)C(=O)O[C@H]1C[C@H](O)\C=C2\C=C/[C@H](C)[C@H](CC[C@@H](O)C[C@@H](O)CC(O)=O)[C@@H]12	114
C[C@]12CC[C@@H]3c4ccc(O)cc4CC[C@H]3[C@@H]1C[C@@H](O)[C@@H]2O	116
Cc1[nH]c(/C=C2\C(=O)Nc3ccccc32)c(C)c1CCC(=O)O	102
COc1cc([C@H]2Oc3cc([C@H]4Oc5cc(O)cc(O)c5C(=O)[C@@H]4O)ccc3O[C@@H]2CO)ccc1O	102
Cc1cc(Nc2cc(CN3CCOCC3)c3nc(C)c(Cc4ccc(Cl)cc4F)n3n2)[nH]n1	106
COCCOc1nc(-c2ccc(Cl)c(Cl)c2)n(-c2ccc(NC(=O)CCl)cc2)n1	84.1

We now examine a further compound.
Query: Dear colleague, please send me the reported cell viability for COc1ccc2c(c1)c(CC(=O)OCC(=O)O)c(C)n2C(=O)c1ccc(Cl)cc1 when you can.
Reply: 120
